Literature-derived pIC50 for human IKK-β (Homo sapiens) follows.
pIC50: −log10 of the molar value.
assay-endpoint: pIC50

[[record]]
molecule = "CCN1CCN(c2ccc(Nc3ncc(C)c(Nc4ccc5cn[nH]c5c4)n3)cc2OC)CC1"
value = 6.16

[[record]]
molecule = "N#Cc1c(C2CCCNC2)cc(-c2c(O)cccc2OCc2ccccc2-c2ccccc2)nc1N (stereo not shown)"
value = "> 6.30"

[[record]]
molecule = "N#Cc1c(C2CCCNC2)cc(-c2ccc(O)cc2O)nc1N (stereo not shown)"
value = "5.70 to 6.30"

[[record]]
molecule = "NC(=O)Nc1cc(-c2ccc(OCC[C@H](N)C(=O)O)cc2)sc1C(N)=O"
value = "> 6.00"


* * *

Literature-derived IC50 for human IKK-β (Homo sapiens, UniProt O14920) follows.
assay-endpoint: IC50

[[record]]
compound = "NC(=O)Nc1sc(-c2ccc(COCC[C@H](N)C(=O)OC3CCCC3)cc2)cc1C(N)=O"
value = "< 1 µM"

[[record]]
compound = "CC(=O)NCc1c(C2CCCNC2)cc(-c2ccccc2O)nc1N (stereo not drawn)"
value = "< 0.5 µM"

[[record]]
compound = "C[C@H](NC(=O)c1cc2c(C3CCCNC3)cc(-c3c(O)cccc3OCC3CC3)nc2[nH]c1=O)C(=O)O (stereo partly drawn)"
value = "< 0.5 µM"

[[record]]
compound = "N#Cc1c(C2CCCNC2)cc(-c2c(O)cccc2OCc2cccc(Br)c2)nc1N (stereo not drawn)"
value = "< 0.5 µM"

[[record]]
compound = "CN(C)CCNC(=O)c1cc2c(C3CCCNC3)cc(-c3c(O)cccc3OCC3CC3)nc2[nH]c1=O (stereo not drawn)"
value = "< 0.5 µM"

[[record]]
compound = "N#Cc1c(-c2cccc(NC(=O)C3CCC(=O)N3)c2)cc(-c2ccccc2O)nc1N (stereo not drawn)"
value = "2 to 10 µM"

[[record]]
compound = "CCCc1cc(N2CCC(NCC(O)COc3ccc4ccccc4c3)CC2)nc2sc(C(N)=O)c(N)c12 (stereo not drawn)"
value = "< 1 µM"

[[record]]
compound = "N#Cc1c(C2CCCCN2)cc(-c2ccccc2O)nc1N (stereo not drawn)"
value = "0.5 to 2 µM"

[[record]]
compound = "NC(=O)Nc1sc(-c2ccc(/C=C/C[C@H](N)C(=O)OC3CCCC3)cc2)cc1C(N)=O"
value = "< 1 µM"

[[record]]
compound = "N#Cc1c(-c2cccc(NC(=O)CN3CCNCC3)c2)cc(-c2ccccc2O)nc1N"
value = "0.5 to 2 µM"

[[record]]
compound = "N#Cc1c(-c2cccc(NC(=O)C(O)CCC(=O)O)c2)cc(-c2cc(F)ccc2O)nc1N (stereo not drawn)"
value = "0.5 to 2 µM"

[[record]]
compound = "NC(=O)c1c(-c2cccc(NC(=O)C(O)CCC(=O)O)c2)cc(-c2ccccc2O)nc1N (stereo not drawn)"
value = "2 to 10 µM"

[[record]]
compound = "N#Cc1c(N2CCOCC2)cc(-c2ccccc2O)nc1N"
value = "0.5 to 2 µM"

[[record]]
compound = "CCCc1cc(N2CCC(NC[C@@H](O)COc3ccccc3)CC2)nc2sc(C(N)=O)c(N)c12"
value = "< 1 µM"

[[record]]
compound = "CCCOc1cccc(O)c1-c1cc(C2CCCNC2)c2c(n1)NC(=O)CC2 (stereo not drawn)"
value = "< 0.5 µM"

[[record]]
compound = "O=C(NCCO)c1cc2c(C3CCCNC3)cc(-c3c(O)cccc3OCC3CC3)nc2[nH]c1=O (stereo not drawn)"
value = "< 0.5 µM"

[[record]]
compound = "NC(=O)Nc1sc(-c2ccc(C[C@H](N)C(=O)OC3CCCC3)cc2)cc1C(N)=O"
value = "< 1 µM"

[[record]]
compound = "N#Cc1c([C@H](Cc2ccccc2)NC(=O)CCN2CCCCC2)cc(-c2ccccc2O)nc1N"
value = "0.5 to 2 µM"

[[record]]
compound = "NC(=O)c1sc2nc(N3CCC(NCC(O)c4ccc(-c5nccs5)cc4)CC3)cc(C(F)(F)F)c2c1N (stereo not drawn)"
value = "< 1 µM"

[[record]]
compound = "CCCc1cc(N2CCC(NCC(=O)NCCO)CC2)nc2sc(C(N)=O)c(N)c12"
value = "< 1 µM"

[[record]]
compound = "N#Cc1c(-c2cccc(NC(=O)CCN3CCN(Cc4ccccc4)CC3)c2)cc(-c2ccccc2O)nc1N"
value = "2 to 10 µM"

[[record]]
compound = "NC(=O)Nc1sc(-c2ccc(OCC[C@H](N)C(=O)O)c(Cl)c2)cc1C(N)=O"
value = "< 1 µM"

[[record]]
compound = "N#Cc1c(-c2ccc(Cl)c(NC(=O)CNCC3CC3)c2)cc(-c2ccccc2O)nc1N"
value = "0.5 to 2 µM"

[[record]]
compound = "CC(C)C[C@H](NC/C=C/c1cc(F)c(-c2cc(C(N)=O)c(NC(N)=O)s2)cc1F)C(=O)OC1CCCC1"
value = "1 to 5 µM"

[[record]]
compound = "N#Cc1c(C2CCNCC2)cc(-c2c(O)cccc2OCCc2ccccc2)nc1N"
value = "< 0.5 µM"

[[record]]
compound = "NC(=O)Nc1sc(-c2ccc(OCCC[C@@H](N)C(=O)OC3CCCC3)cc2)cc1C(N)=O"
value = "< 1 µM"

[[record]]
compound = "N#Cc1c(-c2cc(NC(=O)CCN3CCCCC3)ccc2F)cc(-c2ccccc2O)nc1N"
value = "0.5 to 2 µM"

[[record]]
compound = "CC(C)(C)OC[C@H](NCc1cccc(-c2cc(C(N)=O)c(NC(N)=O)s2)c1)C(=O)OC1CCCC1"
value = "< 1 µM"

[[record]]
compound = "CCN1CCN(CC(=O)Nc2cccc(-c3cc(-c4ccccc4O)nc(N)c3C#N)c2)CC1"
value = "0.5 to 2 µM"

[[record]]
compound = "N#Cc1c(-c2cccc(NC(=O)CN3CCCC3)c2)cc(-c2ccccc2O)nc1N"
value = "0.5 to 2 µM"

[[record]]
compound = "CCN1CCN(CCC(=O)Nc2cccc(-c3cc(-c4ccccc4O)nc(N)c3C#N)c2)CC1"
value = "0.5 to 2 µM"

[[record]]
compound = "N#Cc1c(C2CCCNC2)cc(-c2c(O)cccc2OCc2ccc(F)cc2)nc1N (stereo not drawn)"
value = "< 0.5 µM"

[[record]]
compound = "NC(=O)Nc1sc(-c2ccc(CN[C@H](C(=O)OC3CCCC3)c3ccccc3)cc2)cc1C(N)=O"
value = "1 to 5 µM"

